experiment-description: logP determination via retention times, calibrated with unbranched alkan-2-ones
Type: physicochemical
measurement-conditions: HPLC on reversed-phase C 18, EEC Directive 79/831 Annex V.A8; method *: 40° C., 0.1% aqueous formic acid and acetonitrile, linear gradient 10% to 95% acetonitrile
Marks after values point to notes of the source that are not given here.
experimental-readout: logP

Reference set, count: 2
compound | logP
CCCCC(=O)Oc1ccc(Nc2ncc(Cl)c(NCC3CC3)n2)cc1 | 3.8*
O=C(N(c1ccc(Nc2ncc(Br)c(NCC3CC3)n2)cc1)C1CC1)C(F)(F)F | 2.74*

Shifting focus to the compound that follows.
stdin: Entry FC(F)Sc1ccc(Nc2ncc(Cl)c(NCC3CC3)n2)cc1 has what logP?
stdout: 2.91*
